Test Target: Recombinant ROCK1 (amino acids 1-477) (Homo sapiens)
Construct: Recombinant ROCK1 (amino acids 1-477); by word order, ROCK1 from Carna Biosciences
Sequence (Q13464 1-477): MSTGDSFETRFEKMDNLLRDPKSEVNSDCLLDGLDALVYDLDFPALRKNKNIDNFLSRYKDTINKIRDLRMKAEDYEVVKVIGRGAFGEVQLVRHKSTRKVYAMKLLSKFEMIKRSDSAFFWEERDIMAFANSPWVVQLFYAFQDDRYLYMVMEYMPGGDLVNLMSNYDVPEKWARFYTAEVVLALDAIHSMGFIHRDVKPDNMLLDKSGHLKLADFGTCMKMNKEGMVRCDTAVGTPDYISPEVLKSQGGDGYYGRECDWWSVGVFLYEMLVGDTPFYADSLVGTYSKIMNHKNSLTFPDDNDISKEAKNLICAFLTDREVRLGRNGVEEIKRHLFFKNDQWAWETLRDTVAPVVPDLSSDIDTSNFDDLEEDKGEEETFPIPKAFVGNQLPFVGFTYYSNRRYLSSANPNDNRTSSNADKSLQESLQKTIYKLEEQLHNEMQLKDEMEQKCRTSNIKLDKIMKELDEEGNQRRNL
Assay Comment: ROCK inhibition assay, LANCE Ultra TR-FRET kinase assay (ROCK1)
Assay type: biochemical
Test Conditions: 1 μM ATP, 50 nM ULight-CREBtide substrate
pIC50: −log10 of the molar value.
Entries and their pIC50 values follow.

See these solved cases before continuing.
>  <Compound>
COc1cccc(CN2CCc3cc(-c4cn[nH]c4)ccc3C2=O)c1 [Compound 1]

>  <pIC50>
< 6.30

$$$$
>  <Compound>
Cc1nocc1-c1ccc2c(=O)n(Cc3cc(F)cc(C(=O)NCC4CCN(C)CC4)c3)ccc2c1 [Compound 149]

>  <pIC50>
7.00 to 7.96

$$$$
>  <Compound>
Cc1nocc1-c1ccc2c(=O)n([C@H](C)c3cccc(C(=O)NCC(F)(F)F)c3)cnc2c1 [Compound 475]

>  <pIC50>
7.00 to 7.96

$$$$
>  <Compound>
CNC(=O)c1cccc(Cn2ccc3cc(-c4cnn(C)c4)ccc3c2=O)c1 [Compound 299]

>  <pIC50>
< 6.30

$$$$
>  <Compound>
Cc1nocc1-c1ccc2c(=O)n(Cc3cccc(C(=O)Nc4ccc5c(c4)CN(C)CC5)c3)ccc2c1 [Compound 101]

>  <pIC50>
> 8.00

$$$$

stdin: Please look up its pIC50: Cc1nocc1-c1ccc2c(=O)n(Cc3cccc(C(=O)NCC4CCN(C5COC5)CC4)c3)ccc2c1 [Compound 84]
stdout: 6.30 to 7.00

stdin: Please look up its pIC50: CNC(=O)c1cc(F)cc(C(C)n2ccc3cc(-c4cn[nH]c4Cl)ccc3c2=O)c1 (centres unmarked) [Compound 294]
stdout: 7.00 to 7.96

stdin: Please look up its pIC50: [2H]C([2H])([2H])NC(=O)c1cccc(Cn2ccc3cc(-c4c[nH]nc4Cl)ncc3c2=O)c1 [Compound 236]
stdout: 7.00 to 7.96

The measurements presented in this section are drawn from patent US12064426B2.
